biological target: Mouse ACVR2A (mouse, UniProt P27038 20-135, limits assumed); test: ELISA; further: test concentration or dose not given here
Sequence (P27038 20-135 limits assumed): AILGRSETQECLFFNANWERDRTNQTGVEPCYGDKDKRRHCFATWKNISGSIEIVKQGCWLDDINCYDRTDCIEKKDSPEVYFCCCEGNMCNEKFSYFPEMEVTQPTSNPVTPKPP
The reader will find reported optical density values listed item by item below.
Write the value in OD as a bare number.

# annotated cases, reported optical density shown
{"columns": ["BINDER", "optical density [OD]"],
 "data": [
  ["371_A12 (antibody, V domains shown) VH: EVQLLESGGGLVQPGGSLRLSCAASGFTFDSYSMNWVRQAPGKGLEWVAGINYNSGYTSYADSVKGRFTISRDNSKNTLYLQMNSLRAEDTAVYYCARSANWHDTALDYWGQGTLVTVSS VL: DIQMTQSPSSLSASVGDRVTITCRASQSILSYVNWYQQKPGKAPKLVIYAATSLASGVPSRFSGSGSGTDFTLTISSLQPEDFATYYCQQSYDTPLTFGGGTKVEIK", 3.3],
  ["373_C04 (antibody, V domains shown) VH: EVQLLESGGGLVQPGGSLRLSCAASGFTFSSYSMNWVRQAPGKGLEWVANINYNSGYTGYADSVKGRFTISRDNSKNTLYLQMNSLRAEDTAVYYCARSANWHDTALDYWGQGTLVTVSS VL: DIQMTQSPSSLSASVGDRVTITCRASQSIISYVNWYQQKPGKAPKLVIYAVTSRASGVPSRFSGSGSGTDFTLTISSLQPEDFATYYCQQSYNSPLTFGGGTKVEIK", 3.5],
  ["370_A01 (antibody, V domains shown) VH: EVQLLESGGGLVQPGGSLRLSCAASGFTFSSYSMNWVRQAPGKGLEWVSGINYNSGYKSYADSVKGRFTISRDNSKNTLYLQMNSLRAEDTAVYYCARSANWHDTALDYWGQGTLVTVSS VL: DIQMTQSPSSLSASVGDRVTITCRASQSISTYLNWYQQKPGKAPKLVIYAATSRASGVPSRFSGSGSGTDFTLTISSLQPEDFATYYCQQSYNLPLTFGGGTKVEIK", 2.96],
  ["369_F02 (antibody, V domains shown) VH: EVQLLESGGGLVQPGGSLRLSCAASGFTFSSYGMNWVRQAPGKGLEWVASINYNSGYKSYADSVKGRFTISRDNSKNTLYLQMNSLRAEDTAVYYCARSANWHDTALDYWGQGTLVTVSS VL: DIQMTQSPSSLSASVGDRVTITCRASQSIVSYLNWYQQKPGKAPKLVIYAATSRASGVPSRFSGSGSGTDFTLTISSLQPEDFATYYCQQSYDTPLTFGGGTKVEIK", 3.35]
]}

Then there is this binder:
*Q* Please give the measured optical density for this binder: 371_B07 (antibody, V domains shown) VH: EVQLLESGGGLVQPGGSLRLSCAASGFTFDSYSMNWVRQAPGKGLEWVAGINYNGGYTSYADSVKGRFTISRDNSKNTLYLQMNSLRAEDTAVYYCARSANWHDTALDYWGQGTLVTVSS VL: DIQMTQSPSSLSASVGDRVTITCRASQSILTYVNWYQQKPGKAPKLLIYAATSRASGVPSRFSGSGSGTDFTLTISSLQPEDFATYYCQQSYELPLTFGGGTKVEIK
*A* 3.04
